# tested_on: K61D RNF146(RING-WWE) (Mus musculus, UniProt Q9CZW6, K63D)
# assay_protocol: ITC, iso-ADPr binding to K61D RNF146
# experimental_setup: 25 °C, K61D mutant
observation_type: Kd (nM)
Just the number please, in nM, no unit attached.

Please fill in: Kd reported for Nc1ncnc2c1ncn2[C@@H]1O[C@H](COP(=O)(O)O)[C@@H](O)[C@H]1O[C@@H]1O[C@H](COP(=O)(O)O)[C@@H](O)[C@H]1O = 457

----------
# tested_on: RNF146(RING-WWE) (residues 30–183) (Mus musculus, UniProt Q9CZW6)
# Sequence (Q9CZW6 32-185): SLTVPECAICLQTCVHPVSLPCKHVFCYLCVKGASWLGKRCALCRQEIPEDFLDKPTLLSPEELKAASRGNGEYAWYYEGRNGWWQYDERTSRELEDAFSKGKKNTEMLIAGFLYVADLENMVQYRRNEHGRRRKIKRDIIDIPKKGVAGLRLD
# assay_protocol: ITC, iso-ADPr binding to WT RNF146
# experimental_setup: ITC, 25 °C, one-site model
observation_type: pKd
Please express pKd as -log10 of the molar concentration.

Value of measured pKd for the entry Nc1ncnc2c1ncn2[C@@H]1O[C@H](COP(=O)(O)O)[C@@H](O)[C@H]1O[C@@H]1O[C@H](COP(=O)(O)O)[C@@H](O)[C@H]1O : 7.41

----------
# tested_on: K61A RNF146(RING-WWE) (Mus musculus, UniProt Q9CZW6, K63A)
# assay_protocol: ITC, iso-ADPr binding to K61A RNF146
# experimental_setup: 25 °C, K61A mutant
observation_type: Kd (nM)
State just the number; it will be interpreted in nM.

Kd reported for this molecule Nc1ncnc2c1ncn2[C@@H]1O[C@H](COP(=O)(O)O)[C@@H](O)[C@H]1O[C@@H]1O[C@H](COP(=O)(O)O)[C@@H](O)[C@H]1O [iso-ADPr] : 214
